The entries below come with measured t1/2 values attached.
Tested on: Liver
protocol description: Half life in mouse liver microsomes
Assay type: ADME, Microsome

[
  {
    "compound string": "C/C(=N\\O)c1cccc(C(C)(C)NC(=O)Nc2ccc(Cl)c([N+](=O)[O-])c2)c1",
    "t1/2": "11 min"
  },
  {
    "compound string": "CO/N=C(\\C)c1cccc(C(C)(C)NC(=O)Nc2ccc(Cl)c(C(F)(F)F)c2)c1",
    "t1/2": "33 min"
  },
  {
    "compound string": "C/C(=N\\O)c1cccc(C(C)(C)NC(=O)Nc2ccc(Cl)c(C(F)(F)F)c2)c1",
    "t1/2": "88 min"
  },
  {
    "compound string": "C/C(=N\\O)c1cccc(C(C)(C)NC(=O)Nc2ccc3cccnc3c2)c1",
    "t1/2": "45 min"
  }
]

Note: attention shifts to another entry.
Read the entry CC(=O)c1cccc(C(C)(C)NC(=O)Nc2ccc(Cl)c(C(N)=O)c2)c1 and write its reported t1/2. > 700 min

====

tgt: Inosine-5'-monophosphate dehydrogenase (Cryptosporidium parvum)
protocol description: Inhibition of Cryptosporidium parvum recombinant IMPDH expressed in Escherichia coli assessed as production of NADH in presence of 0.05% fatty acid free BSA incubated for 5 mins by fluorescence based assay
metric name: pIC50
Answer as the number alone; pIC50 is minus log10 of concentration in mol/L.

[
  {
    "compound": "C=C(C)c1cccc(C(C)(C)NC(=O)Nc2ccc(Cl)c(C(=O)N(C)C)c2)c1",
    "pIC50": 7.93
  },
  {
    "compound": "CC(=O)c1cccc(C(C)(C)NC(=O)Nc2ccc(Cl)c(C(F)(F)F)c2)c1",
    "pIC50": 7.70
  },
  {
    "compound": "CC(=O)c1cccc(C(C)(C)NC(=O)Nc2ccc(Cl)cc2)c1",
    "pIC50": 7.19
  },
  {
    "compound": "C=C(C)c1cccc(C(C)(C)NC(=O)Nc2ccc(Cl)c(Cl)c2)c1",
    "pIC50": 7.30
  },
  {
    "compound": "CC(O)c1cccc(C(C)(C)NC(=O)Nc2ccc(Cl)cc2)c1 (stereo not given)",
    "pIC50": 6.92
  }
]

Read the entry C=C(C)c1cccc(C(C)(C)NC(=O)Nc2ccc3ccccc3c2)c1 and write its reported pIC50. 7.40

Read the entry C/C(=N\O)c1cccc(C(C)(C)NC(=O)Nc2ccc3cccnc3c2)c1 and write its reported pIC50. 8.92

Read the entry NC(=O)c1cc(NC(=O)NC2(c3cccc(-c4ccccc4)c3)CC2)ccc1Cl and write its reported pIC50. 7.05

Read the entry CC(=O)c1cccc(C(C)(C)NC(=O)Nc2ccc(Cl)c(C(N)=O)c2)c1 and write its reported pIC50. 7.28

Read the entry CO/N=C(\C)c1cccc(C(C)(C)NC(=O)Nc2ccc(Cl)c(C(N)=O)c2)c1 and write its reported pIC50. 8.30

====

tgt: Inosine-5'-monophosphate dehydrogenase (Cryptosporidium parvum)
protocol description: Inhibition of Cryptosporidium parvum recombinant IMPDH expressed in Escherichia coli assessed as production of NADH in presence of 0.05% fatty acid free BSA incubated for 5 mins by fluorescence based assay
The entries below come with measured pIC50 values attached.
Answer as the number alone; pIC50 is minus log10 of concentration in mol/L.

[
  {
    "compound string": "C=C(C)c1cccc(C(C)(C)NC(=O)Nc2ccc(Br)cc2)c1",
    "pIC50": 7.70
  },
  {
    "compound string": "C/C(=N\\O)c1cccc(C(C)(C)NC(=O)Nc2ccc(Cl)c([N+](=O)[O-])c2)c1",
    "pIC50": 8.70
  },
  {
    "compound string": "C=C(C)c1cccc(C(C)(C)NC(=O)Nc2cccc(Cl)c2)c1",
    "pIC50": 6.48
  },
  {
    "compound string": "C=C(C)c1cccc(C(C)(C)NC(=O)Nc2ccccc2)c1",
    "pIC50": 6.39
  }
]

Note: attention shifts to another entry.
Read the entry C=C(C)c1cccc(C(C)(C)NC(=O)Nc2ccc(Cl)c(OC)c2)c1 and write its reported pIC50. 8.30

====

tgt: Inosine-5'-monophosphate dehydrogenase (Cryptosporidium parvum, UniProt Q8T6T2)
Sequence (Q8T6T2 whole entry): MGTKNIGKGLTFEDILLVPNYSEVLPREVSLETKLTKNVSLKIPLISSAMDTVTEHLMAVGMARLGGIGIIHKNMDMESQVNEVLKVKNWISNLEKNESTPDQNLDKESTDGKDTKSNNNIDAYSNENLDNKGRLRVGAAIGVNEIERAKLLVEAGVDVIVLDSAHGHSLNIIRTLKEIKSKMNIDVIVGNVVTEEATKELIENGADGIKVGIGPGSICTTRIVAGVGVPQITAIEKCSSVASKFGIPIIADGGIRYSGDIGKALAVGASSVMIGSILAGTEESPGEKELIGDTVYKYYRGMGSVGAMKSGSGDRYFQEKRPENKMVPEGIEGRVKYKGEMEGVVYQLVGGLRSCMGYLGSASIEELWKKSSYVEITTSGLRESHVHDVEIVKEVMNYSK
protocol description: Inhibition of Cryptosporidium parvum recombinant IMPDH expressed in Escherichia coli assessed as production of NADH in presence of 0.05% fatty acid free BSA incubated for 5 mins by fluorescence based assay
metric name: log10 of IC50 (log10 of the value in nM)
Transform log10 | Measure IC50 | Unit nM

[
  {
    "molecule": "CC(=O)c1cccc(C(C)(C)OC(=O)Nc2ccc(Cl)cc2)c1",
    "metric name": "log10 of IC50",
    "result": 2.08
  },
  {
    "molecule": "C=C(C)c1cccc(C(C)(C)NC(=O)Nc2ccc3ncccc3c2)c1",
    "metric name": "log10 of IC50",
    "result": 0.60
  },
  {
    "molecule": "C=C(C)c1cccc(C(C)(C)NC(=O)Nc2ccc(Cl)c(C(N)=O)c2)c1",
    "metric name": "log10 of IC50",
    "result": 0.48
  },
  {
    "molecule": "C=C(C)c1cccc(C(C)(C)NC(=O)Nc2ccc(Cl)c(C(=O)NC)c2)c1",
    "metric name": "log10 of IC50",
    "result": 1.15
  },
  {
    "molecule": "CC(=O)c1cccc(C(C)NC(=O)Nc2ccc(Cl)cc2)c1 (stereo unspecified)",
    "metric name": "log10 of IC50",
    "result": 2.04
  },
  {
    "molecule": "C=C(C)c1cccc(C(C)(C)NC(=O)Nc2ccc3ccccc3n2)c1",
    "metric name": "log10 of IC50",
    "result": 3.04
  },
  {
    "molecule": "C/C(=N\\O)c1cccc(C(C)(C)NC(=O)Nc2ccc3ccccc3c2)c1",
    "metric name": "log10 of IC50",
    "result": 0.36
  },
  {
    "molecule": "C/C(=N\\O)c1cccc(C(C)(C)NC(=O)Nc2ccc(Cl)c(C(F)(F)F)c2)c1",
    "metric name": "log10 of IC50",
    "result": 0.60
  }
]

Read the entry C=C(C)c1cccc(C(C)(C)NC(=O)Nc2ccc(OC)cc2)c1 and write its reported log10 of IC50. 1.32

Read the entry C=C(C)c1cccc(C(C)(C)NC(=O)Nc2ccc3cccnc3c2)c1 and write its reported log10 of IC50. 0.78

Read the entry C=C(C)c1cccc(C(C)(C)NC(=O)Nc2ccc(Cl)cc2)c1 and write its reported log10 of IC50. 1.57

====

tgt: Inosine-5'-monophosphate dehydrogenase (Cryptosporidium parvum, UniProt Q8T6T2)
protocol description: Inhibition of Cryptosporidium parvum recombinant IMPDH expressed in Escherichia coli assessed as production of NADH incubated for 5 mins by fluorescence based assay
metric name: pIC50
Answer as the number alone; pIC50 is minus log10 of concentration in mol/L.

# annotated cases, reported pIC50 shown
[
  {
    "compound string": "C=C(C)c1cccc(C(C)(C)NC(=O)Nc2ccc3[nH]c(=O)[nH]c3c2)c1",
    "tgt": "Inosine-5'-monophosphate dehydrogenase (Cryptosporidium parvum, UniProt Q8T6T2)",
    "result": 6.47
  },
  {
    "compound string": "C/C(=N\\O)c1cccc(C(C)(C)NC(=O)Nc2ccc(Cl)c(C(F)(F)F)c2)c1",
    "tgt": "Inosine-5'-monophosphate dehydrogenase (Cryptosporidium parvum, UniProt Q8T6T2)",
    "result": 9.00
  },
  {
    "compound string": "C=C(C)c1cccc(C(C)(C)NC(=O)Nc2ccc(Cl)c(C(F)(F)F)c2)c1",
    "tgt": "Inosine-5'-monophosphate dehydrogenase (Cryptosporidium parvum, UniProt Q8T6T2)",
    "result": 8.40
  },
  {
    "compound string": "C=C(C)c1cccc(C(C)(C)NC(=O)Nc2cccc(Cl)c2)c1",
    "tgt": "Inosine-5'-monophosphate dehydrogenase (Cryptosporidium parvum, UniProt Q8T6T2)",
    "result": 7.15
  },
  {
    "compound string": "C=C(C)c1cccc(C(C)(C)NC(=O)Nc2ccc3cccnc3c2)c1",
    "tgt": "Inosine-5'-monophosphate dehydrogenase (Cryptosporidium parvum, UniProt Q8T6T2)",
    "result": 9.10
  },
  {
    "compound string": "C=C(C)c1cccc(C(C)(C)NC(=O)Nc2ccc(Cl)c(C(=O)N(C)C)c2)c1",
    "tgt": "Inosine-5'-monophosphate dehydrogenase (Cryptosporidium parvum, UniProt Q8T6T2)",
    "result": 8.10
  },
  {
    "compound string": "C/C(=N\\OCCN)c1cccc(C(C)(C)NC(=O)Nc2ccc(Cl)c([N+](=O)[O-])c2)c1",
    "tgt": "Inosine-5'-monophosphate dehydrogenase (Cryptosporidium parvum, UniProt Q8T6T2)",
    "result": 7.70
  },
  {
    "compound string": "C=C(C)c1cccc(C(C)(C)NC(=O)Nc2ccc(Cl)c(OC)c2)c1",
    "tgt": "Inosine-5'-monophosphate dehydrogenase (Cryptosporidium parvum, UniProt Q8T6T2)",
    "result": 8.89
  }
]

Note: attention shifts to another entry.
Read the entry C/C(=N\O)c1cccc(C(C)(C)NC(=O)Nc2ccc(Cl)c([N+](=O)[O-])c2)c1 and write its reported pIC50. 9.18
